target under test: Cytochrome P450 2D6 (Homo sapiens)
assay comment: Cytochrome panel assay with activity outcomes
assay context: recombinant CYP, pro-luciferin dealkylation, luminescence, p450-cyp2d6; series mostly up to 57.1 µM
Among all 16,000 compounds or so, about 2,600 (16%) were called active. Another 20% or so got no clear call; they are omitted. Calls come from the whole dose curve; as a rule, active = well fitted curve in the direction sought with a large enough effect; inconclusive = small, poorly fitted or top-dose-only effect, or effect the other way; inactive = no such curve, though single readings can be large or run the other way. A selection follows.
Outcomes you can answer with include only these: yes = active, no = inactive

**Q:** What did the test return for Cn1cc(-c2nc3cnc(Oc4ccccc4)nc3n(C3CC3)c2=O)c2ccccc21 ?
**A:** no

**Q:** Likewise for c1ccc(C2CCC(N3CCC(N4CCCCC4)CC3)CC2)cc1 (stereo not drawn) ?
**A:** yes

**Q:** Then Cc1ccccc1-c1cc(NCCN2CCOCC2)ncn1 ?
**A:** no

The measurements presented in this section are drawn from PubChem BioAssay AID1851.
